system: MS2 coat protein; experiment: apparent KD of MS2 coat protein; designed switch direction (-1 OFF switch, 1 ON switch): -1; higher = weaker reporter binding; conditions: input ligand: FMN 200 uM
apparent KD of MS2 coat protein below 0.1 µM gives Not satisfied; apparent KD of MS2 coat protein at or above it gives Satisfied.

1. GGUCCGAGUGUGAGGAUAUGCUGGUCCUUGGAUCAGCAGAAGGCACAUGAGGAUCACCCAUGUGAAGACGGACC [Mat - Exclusion 4 - Eli Mod - D30] (Eterna round: R97, puzzle: Brourd's mod of Exclusion 4); Satisfied
2. UGCUACAUGAGGAUCACCCAUGUAAUGUGGGAUUCGUUAGGACAGGAUAUGAUUGUAUUGUUUUUUCAGAAGGGUCAUUACUUU [JR_ExcNG3_Sub011] (Eterna round: R96, puzzle: Exclusion NG 3); Not satisfied
3. GGUCGUAUGAGUAGUCCUCAUUGAAGAGAUUGGUAAGAUACAUGAGGAUCACCCAUGUUUGAACAAGCUUUUGCUCU [JR_Sv3TOV2_Sub008] (Eterna round: R96, puzzle: Sensor v3, turn-off variant 2); Satisfied
4. UCUCACUCAGGAUAUCUUCCGCAUGACAUGAGGAUCACCCAUGUGUGCAUGCCCUUUGGUAGAGAAGGGAGUGAGA [eternacac ex5r4 #5] (Eterna round: R97, puzzle: Exclusion 5); Not satisfied
5. AAGAUGUGAGGAUAUCACGAAGGCGUCAAACUGACGCCUUCUGAGAAGGCACAUGAGGAUCACCCAUGUCCAAA [EX4 A.23] (Eterna round: R97, puzzle: Exclusion 4); Satisfied
6. AAAUCGUGAGGAUAUCCAAUAUAUGACAUGAGGAUCACCCAUGUUUCCACUCGUACCUCCGGAGAAGGCACAAUAA [Ex5 #75] (Eterna round: R97, puzzle: Exclusion 5); Not satisfied
7. UGAGAGUGAGGAUAUACGUCGCUGGUCCGGAUGGACGCAUGACAUGAGGAUCACCCAUGUAGAAGGCAUUUCCC [Enxela Mod 6 - Jieux - Exclusion 2] (Eterna round: R97, puzzle: Exclusion 2); Not satisfied
8. AGUACCUGAGUACAAUGUAACAUGAGGAUCACCCAUGUAAUUGGGUGAGAACAAGCUCACCGUUCGUCUUAAAUAAA [JL turnoff v1 80] (Eterna round: R96, puzzle: Sensor v2, turn-off variant); Satisfied
9. CCUUAUUAUCGAGGAUAUCCUAUUGAAAUUCUGGGAGAAGGCGGACUCAACAUGAGGAUCACCCAUGUGGGACGGAUGCUAGGA [salish99_exng1_r04_603] (Eterna round: R96, puzzle: Exclusion NG 1); Not satisfied
10. CGGAUGUUAGGAUAUUAGUAGUAGUCAGAAUAGACUAUUACUGAGAAGGAACAUGAGGAUCACCCAUGUAUCCG [Eli x4 4.20] (Eterna round: R97, puzzle: Exclusion 4); Not satisfied
11. CAUGAGGGAGGAUAUACAUGAGGAUCACCCAUGUAACUGGGAGUAGUUCUUCGUAGUCGUAGAAGGCCUGAGGG [Eternabot (L1) Solution 14] (Eterna round: R97, puzzle: Exclusion 3); Satisfied
12. UAAAAGGGAGGAUAUACUUGAGGAUCACCCAAGUGAUCCAGACCCUGAACGGUCUAUAGUAGAAGGCCCAAUAA [Teinma] (Eterna round: R97, puzzle: Exclusion 3); Satisfied
13. UGUGUGUCAGGAUAUGUGUGUGUGUGUGAAAGCGCGCGCGCGCAGAAGGGACAUGAGGAUCACCCAUGUGCGCG [-35.3, -34.3 kcal, A 20%, 6bis-6] (Eterna round: R97, puzzle: Exclusion 4); Satisfied
14. ACAUGAGGAUCACCCAUGUGAAACCAAUGGCUGACUUUGAGACAGGAUAUUCGUGCAUAUCAUACGAAGAAGGGUCAUUACUGG [Deportation 96 - Jieux - Exclusion NG 3] (Eterna round: R96, puzzle: Exclusion NG 3); Not satisfied
15. AGCAUGCGGAAGGAUAUUUGGAGUAGCGACUCGGGAGAAGGUCUGACAUGAGGAUCACCCAUGUGGAGAGACUG [Eternabot (L1) Solution 59] (Eterna round: R97, puzzle: Exclusion 6); Not satisfied
16. GGGCCCGGAGGAUAUACAAUCCCGGGCCGAAAGGUUUGGGUACAUGAGGAUCACCCAUGUAGAAGGCCGGGCCC [-40.9, -38.2 kcal A 24%, 5b bis,0] (Eterna round: R97, puzzle: Exclusion 2); Not satisfied
17. GCGGACUAGUUCGUGAGAACUGAGACAUGAGGAUCACCCAUGUAGGAUAUCGAUUCGAAACGAAUCGAGAAGGGCAUAGUCCGC [JL denovo 9] (Eterna round: R96, puzzle: Exclusion NG 3); Not satisfied
18. AGCCAAGCAGGAUAUAUCCGGGAUAACAUGAGGAUCACCCAUGUGACCGAUUGAUAUCCUAUAGAAGGGCUUGGGA [Mod of ViennaUCT 23 - Jieux - Exclusion 5] (Eterna round: R97, puzzle: Exclusion 5); Satisfied
